Source: the supplement of paper PMC12667976

B1: library; numbered along this chain (parent)
chain: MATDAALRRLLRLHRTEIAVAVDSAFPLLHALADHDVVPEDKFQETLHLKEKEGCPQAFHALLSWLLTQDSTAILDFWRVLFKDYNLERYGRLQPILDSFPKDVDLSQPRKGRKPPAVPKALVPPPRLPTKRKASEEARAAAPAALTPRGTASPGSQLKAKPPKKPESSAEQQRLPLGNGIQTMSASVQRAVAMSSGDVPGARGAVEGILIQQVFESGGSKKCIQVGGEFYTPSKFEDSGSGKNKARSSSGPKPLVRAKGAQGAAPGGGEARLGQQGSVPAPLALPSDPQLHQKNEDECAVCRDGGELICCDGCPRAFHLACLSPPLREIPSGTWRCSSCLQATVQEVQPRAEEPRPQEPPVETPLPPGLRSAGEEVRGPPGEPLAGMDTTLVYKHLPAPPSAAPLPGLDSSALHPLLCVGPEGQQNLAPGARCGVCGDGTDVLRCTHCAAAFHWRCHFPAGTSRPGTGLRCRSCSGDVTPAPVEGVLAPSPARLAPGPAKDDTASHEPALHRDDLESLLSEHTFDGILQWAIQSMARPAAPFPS

Variants of: B1
Assay: AIRE transcriptional activation functional score (insulin promoter-GFP; nonsense median 0, synonymous median 1) (normalised score); higher = higher AIRE activity (more reporter activation)
Details: with insulin promoter-GFP reporter in HEK293
Assign 1.0 whenever AIRE transcriptional activation functional score does not fall below 0.9; assign 0.0 whenever it does.

Answered cases to consult:
S476R; 0.0
E359W; 1.0
W455K; 0.0

Query: Determine whether this variant has AIRE transcriptional activation functional score no lower than 0.9: G240F
Response: 1.0

Query: Determine whether this variant has AIRE transcriptional activation functional score no lower than 0.9: R494Y
Response: 0.0

Query: Determine whether this variant has AIRE transcriptional activation functional score no lower than 0.9: K222Y
Response: 0.0

Query: Determine whether this variant has AIRE transcriptional activation functional score no lower than 0.9: P355N
Response: 1.0
